Value source: patent US4366160A

# Test system: sympathetic nervous system
# Assay method text: Central sympathetic-inhibitory activity (cats in urethane narcosis)
# Format: in vivo
# Applied conditions: anaesthetized cat, i.v.; positive if sympathetic activity inhibited >30% for >30 minutes in blood pressure-lowering dosages
Measurement type: Central sympathetic-inhibitory activity

[O-][n+]1ccc(O)cc1CON1CCNC1=Nc1c(Cl)cccc1Cl [H] = none
Cc1ccc(CON2CCNC2=Nc2c(Cl)cccc2Cl)[n+]([O-])c1 [F] = none
Cc1cc[n+]([O-])c(CON2CCNC2=Nc2c(Cl)cccc2Cl)c1 [D] = none

====

# Test system: Anaesthetized cat
# Assay method text: Blood pressure and heart rate in the anaesthetized cat (i.v.)
# Format: in vivo
# Applied conditions: 3.0 mg/kg (i.v.), maximum variation from control
Measurement type: Heart rate, Δ%
Please format your answer as a value with the unit trailing.

Example entries and their recorded answers appear below.
Cc1cc[n+]([O-])c(CON2CCNC2=Nc2c(Cl)cccc2Cl)c1 [D] = -27%
[O-][n+]1ccc(O)cc1CON1CCNC1=Nc1c(Cl)cccc1Cl [H] = -2%
[O-][n+]1ccccc1CON1CCNC1=Nc1c(Cl)cccc1Cl [Compound A] = -5%
[O-][n+]1ccccc1CON1CCNC1=Nc1cccc(Cl)c1Cl [B] = -6%
CC(ON1CCNC1=Nc1c(Cl)cccc1Cl)c1cc[n+]([O-])cc1 (stereo not shown) [E] = 0%
Cc1cccc(CON2CCNC2=Nc2c(Cl)cccc2Cl)[n+]1[O-] [G] = -4%

Switching to the query record.
IN: What does the data say about its Heart rate, Δ%? Entry: Cc1ccc(CON2CCNC2=Nc2c(Cl)cccc2Cl)[n+]([O-])c1 [F]
OUT: 0%

====

# Tested on: Spontaneously hypertensive rat
# Assay method text: Cardiovascular activities: systolic blood pressure and heart rate in conscious spontaneously hypertensive rats (p.o.)
# Format: in vivo
# Applied conditions: 1.0 mg/kg (p.o.), maximum variation from control
Measurement type: Heart rate, Δ%

Before answering, review these 4 worked examples.
Cc1cc[n+]([O-])c(CON2CCNC2=Nc2c(Cl)cccc2Cl)c1 = -10.0%
[O-][n+]1ccccc1CON1CCNC1=Nc1cccc(Cl)c1Cl = -11.8%
CN(C1=NCCN1OCc1cccc[n+]1[O-])c1c(Cl)cccc1Cl = +6.3%
[O-][n+]1ccccc1CON1CCNC1=Nc1c(Cl)cccc1Cl = +15.2%

Next, consider the following compound.
IN: Form field: Heart rate, Δ% recorded for `Cc1ccc(CON2CCNC2=Nc2c(Cl)cccc2Cl)[n+]([O-])c1` with Spontaneously hypertensive rat (enter value)
OUT: -4.9%

====

# Test system: Anaesthetized cat
# Assay method text: Blood pressure and heart rate in the anaesthetized cat (i.v.)
# Format: in vivo
# Applied conditions: 1.0 mg/kg (i.v.), maximum variation from control
Measurement type: Blood pressure, Δ% (%)
Express the result in % but write the number alone.

IN: Look at this compound and give its reported Blood pressure, Δ%. `[O-][n+]1ccccc1CON1CCNC1=Nc1cccc(Cl)c1Cl`
OUT: -5

IN: Dear colleague, I am looking for the recorded Blood pressure, Δ% of the following compound: `[O-][n+]1ccc(O)cc1CON1CCNC1=Nc1c(Cl)cccc1Cl`
OUT: -12

IN: Given the entry `Cc1ccc(CON2CCNC2=Nc2c(Cl)cccc2Cl)[n+]([O-])c1` , report its measured Blood pressure, Δ%.
OUT: 0

IN: GET /values?readout=Blood pressure, Δ%&item= `Cc1cccc(CON2CCNC2=Nc2c(Cl)cccc2Cl)[n+]1[O-]`
OUT: -4

IN: Entry CC(ON1CCNC1=Nc1c(Cl)cccc1Cl)c1cc[n+]([O-])cc1 (stereo not drawn) : reported Blood pressure, Δ% = ?
OUT: 0

IN: For the compound shown here, `[O-][n+]1ccccc1CON1CCNC1=Nc1c(Cl)cccc1Cl` , give the reported Blood pressure, Δ%.
OUT: -5

====

# System: Anaesthetized cat
# Assay method text: Blood pressure and heart rate in the anaesthetized cat (i.v.)
# Format: in vivo
# Applied conditions: 10.0 mg/kg (i.v.), maximum variation from control
In this section we review reported Blood pressure, Δ% values for a set of compounds.
Numbers only here, please. The scale is %.

Worked cases, answers included:
[O-][n+]1ccccc1CON1CCNC1=Nc1c(Cl)cccc1Cl = -10
Cc1cccc(CON2CCNC2=Nc2c(Cl)cccc2Cl)[n+]1[O-] = -15
CC(ON1CCNC1=Nc1c(Cl)cccc1Cl)c1cc[n+]([O-])cc1 (stereo not shown) = -12

Consider the additional compound presented here.
IN: State the recorded Blood pressure, Δ% for this entry: `Cc1ccc(CON2CCNC2=Nc2c(Cl)cccc2Cl)[n+]([O-])c1`
OUT: 0

====

# System: Anaesthetized cat
# Assay method text: Blood pressure and heart rate in the anaesthetized cat (i.v.)
# Assay type: in vivo
# Applied conditions: 1.0 mg/kg (i.v.), maximum variation from control
Overview of reported Heart rate, Δ% across a group of compounds:
Numbers only; they are read as %.

For orientation, consider the following solved cases.
Cc1cccc(CON2CCNC2=Nc2c(Cl)cccc2Cl)[n+]1[O-] [G] = 0
Cc1ccc(CON2CCNC2=Nc2c(Cl)cccc2Cl)[n+]([O-])c1 [F] = 0
[O-][n+]1ccccc1CON1CCNC1=Nc1c(Cl)cccc1Cl [Compound A] = -5
CC(ON1CCNC1=Nc1c(Cl)cccc1Cl)c1cc[n+]([O-])cc1 (stereo not shown) [E] = 0
CN(C1=NCCN1OCc1cccc[n+]1[O-])c1c(Cl)cccc1Cl [C] = -6

IN: // query Heart rate, Δ% value for entry [O-][n+]1ccc(O)cc1CON1CCNC1=Nc1c(Cl)cccc1Cl [H]
OUT: 0

IN: Entry [O-][n+]1ccccc1CON1CCNC1=Nc1cccc(Cl)c1Cl [B] : reported Heart rate, Δ% = ?
OUT: 0

====

# Test system: Anaesthetized cat
# Assay method text: Blood pressure and heart rate in the anaesthetized cat (i.v.)
# Format: in vivo
# Applied conditions: 10.0 mg/kg (i.v.), maximum variation from control
# Description: The action of the test compounds on the activity in the sympathetic nervous system is investigated on cats in urethane narcosis. […] Moreover, there is measured the arterial blood pressure from the femoral artery as well as the heart rate. […]
Measurement type: Heart rate, Δ% (%)
Value expressed in %; do not type the unit.

[O-][n+]1ccccc1CON1CCNC1=Nc1cccc(Cl)c1Cl [B] = -6

IN: I am curious: what Heart rate, Δ% value has been reported for Cc1ccc(CON2CCNC2=Nc2c(Cl)cccc2Cl)[n+]([O-])c1 [F] ?
OUT: -10

IN: What value of Heart rate, Δ% has been reported for the following compound? CC(ON1CCNC1=Nc1c(Cl)cccc1Cl)c1cc[n+]([O-])cc1 (centres unmarked) [E]
OUT: -14

IN: Need Heart rate, Δ% of Cc1cccc(CON2CCNC2=Nc2c(Cl)cccc2Cl)[n+]1[O-] [G] , thanks.
OUT: -13

IN: Quick one: Heart rate, Δ% of [O-][n+]1ccccc1CON1CCNC1=Nc1c(Cl)cccc1Cl [Compound A] ?
OUT: -29

====

This section presents compounds with their documented Heart rate, Δ% values.
# Tested on: Spontaneously hypertensive rat
# Assay method text: Cardiovascular activities: systolic blood pressure and heart rate in conscious spontaneously hypertensive rats (p.o.)
# Format: in vivo
# Applied conditions: 10.0 mg/kg (p.o.), maximum variation from control
Value expressed in %; do not type the unit.

Use these answered entries as a reference point.
[O-][n+]1ccccc1CON1CCNC1=Nc1c(Cl)cccc1Cl = -9.6
CC(ON1CCNC1=Nc1c(Cl)cccc1Cl)c1cc[n+]([O-])cc1 (centres unmarked) = -13.2
Cc1cccc(CON2CCNC2=Nc2c(Cl)cccc2Cl)[n+]1[O-] = -22.6

Attention now turns to another entry.
IN: Record request: Heart rate, Δ% value, item `Cc1cc[n+]([O-])c(CON2CCNC2=Nc2c(Cl)cccc2Cl)c1`
OUT: -13.3

====

# System: writhing (mouse)
# Assay method text: Writhing test (mouse), 60 minutes after peroral administration
# Assay type: in vivo
# Applied conditions: po, 1 h, orally, 60 minutes after administration, 50% of animals show no more than one writhing
Measurement type: log10 of ED50 (log10 of the value in mg/kg)
Values reflect log10 of reported ED50 (mg/kg).

Answered examples (5):
Cc1cc[n+]([O-])c(CON2CCNC2=Nc2c(Cl)cccc2Cl)c1 = 1.20
CC(ON1CCNC1=Nc1c(Cl)cccc1Cl)c1cc[n+]([O-])cc1 (centres unmarked) = 0.86
[O-][n+]1ccc(O)cc1CON1CCNC1=Nc1c(Cl)cccc1Cl = 0.94
CN(C1=NCCN1OCc1cccc[n+]1[O-])c1c(Cl)cccc1Cl = 1.41
Cc1cccc(CON2CCNC2=Nc2c(Cl)cccc2Cl)[n+]1[O-] = 1.20

IN: Query (compound): `Cc1ccc(CON2CCNC2=Nc2c(Cl)cccc2Cl)[n+]([O-])c1` ; field requested: log10 of ED50
OUT: 1.43

IN: Item under review: `[O-][n+]1ccccc1CON1CCNC1=Nc1cccc(Cl)c1Cl` . Reported log10 of ED50?
OUT: 0.11

IN: Need log10 of ED50 of `[O-][n+]1ccccc1CON1CCNC1=Nc1c(Cl)cccc1Cl` , thanks.
OUT: 0.54
